# Test system: RAW-Dual
# assay_procedure: NF-kB SEAP reporter activity, fold change vs agonist alone; cytotoxicity flag (confluency mask): not cytotoxic; higher = enhanced NF-kB activity
# experimental_setup: agonist: LPS (TLR4) 0.1 ug/mL
In all, about 2,900 compounds were measured (“NF-kB SEAP reporter activity, fold change vs agonist alone”: median about 0.99, highest 2% from about 2.6 on). For the sample, the highest values were picked, then their nearest neighbours and some compounds at random.
Parameter NF-kB SEAP reporter activity: see the listing below.
Keep it simple and answer with nothing but the number.

input: I would be grateful if you could share the reported NF-kB SEAP reporter activity for c1ccc(C(c2ccccc2)N2CCN(Cc3ccc4c(c3)OCO4)CC2)cc1 (library stock concentration (final ~1000-fold dilution): 10 mM) .
output: 0.717

input: I would be grateful if you could share the reported NF-kB SEAP reporter activity for NC(=O)c1ccc(-c2nc(-c3ccc4c(c3)OCCO4)c(-c3ccccn3)[nH]2)cc1 (library stock concentration (final ~1000-fold dilution): 10 mM) .
output: 1.81

input: I would be grateful if you could share the reported NF-kB SEAP reporter activity for COc1ccc(CNC(=O)Nc2ncc([N+](=O)[O-])s2)cc1 (library stock concentration (final ~1000-fold dilution): 10 mM) .
output: 2.74

input: I would be grateful if you could share the reported NF-kB SEAP reporter activity for CC(C)(C)NC(=O)C1CCC2C3CCC4NC(=O)C=CC4(C)C3CCC12C (stereo not given) (library stock concentration (final ~1000-fold dilution): 10 mM) .
output: 0.988

input: I would be grateful if you could share the reported NF-kB SEAP reporter activity for COc1cc2ncc(-c3ccccc3)nc2cc1OC (library stock concentration (final ~1000-fold dilution): 10 mM) .
output: 1.78

input: I would be grateful if you could share the reported NF-kB SEAP reporter activity for NC(=O)c1ccc2[nH]c(-c3ccc(Oc4ccc(Cl)cc4)cc3)nc2c1 (library stock concentration (final ~1000-fold dilution): 10 mM) .
output: 1.71

input: I would be grateful if you could share the reported NF-kB SEAP reporter activity for CS(=O)(=O)n1cc2c(n1)CN(C1COC(c3cc(F)ccc3F)C(N)C1)C2 (stereo not given) (library stock concentration (final ~1000-fold dilution): 10 mM) .
output: 1.1

input: I would be grateful if you could share the reported NF-kB SEAP reporter activity for Cn1cc(-c2ccc3ncc(Cc4ccc5ncccc5c4)n3n2)cn1 (library stock concentration (final ~1000-fold dilution): 10 mM) .
output: 1.88

input: I would be grateful if you could share the reported NF-kB SEAP reporter activity for CCCCCCCCCC(=O)NC(Cc1c[nH]c2ccccc12)C(=O)NC(CC(N)=O)C(=O)NC(CC(=O)O)C(=O)NC1C(=O)NCC(=O)NC(CCCN)C(=O)NC(CC(=O)O)C(=O)NC(C)C(=O)NC(CC(=O)O)C(=O)NCC(=O)NC(CO)C(=O)NC(C(C)CC(=O)O)C(=O)NC(CC(=O)c2ccccc2N)C(=O)OC1C (stereo not given) (library stock concentration (final ~1000-fold dilution): 10 mM) .
output: 1.33

input: I would be grateful if you could share the reported NF-kB SEAP reporter activity for O=C(Nc1ncc([N+](=O)[O-])s1)c1ccccc1O (library stock concentration (final ~1000-fold dilution): 10 mM) .
output: 0.954

Source: the supplement of paper PMC10037445
